molecular target: KDM4D (Homo sapiens); construct: KDM4AM1-L359,[38]; KDM4DM1-L359,[39]; KDM4EM1-R336,[30]; His6 (N); made in house; host or cells: Escherichia coli; experiment: LC-MS demethylation activity assay, KDM4D; type: biochemical; conditions: 2 μM KDM, 10 μM H1/H3 peptide, 10 μM FAS, 100 μM LAA, 20 μM 2OG, 50 mM HEPES pH 7.5, 2 h, room temperature, T (tri-) initial methylation state
Sequence (Q6B0I6 1-359): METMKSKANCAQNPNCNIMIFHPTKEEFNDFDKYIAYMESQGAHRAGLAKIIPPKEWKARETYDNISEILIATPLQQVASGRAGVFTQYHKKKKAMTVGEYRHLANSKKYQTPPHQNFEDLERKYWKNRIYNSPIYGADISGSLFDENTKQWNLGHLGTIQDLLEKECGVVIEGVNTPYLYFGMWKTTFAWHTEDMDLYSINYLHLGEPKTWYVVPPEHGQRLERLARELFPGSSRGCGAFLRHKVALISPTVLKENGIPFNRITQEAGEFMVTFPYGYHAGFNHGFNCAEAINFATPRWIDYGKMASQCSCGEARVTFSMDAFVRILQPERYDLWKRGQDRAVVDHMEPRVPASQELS
Square brackets hold non-standard residues; d marks the D form. Ends that are not written are not given here. Lys(Me3) = C[N+](C)(C)CCCC[C@H](N)C(=O)O

SUBSTANCE	KDM4D demethylation activity, T
KKKAA[Lys(Me3)]KAGGTPRKA [Peptide H1.2K25me3, 15-mer linker histone H1.2 residues 20-34 peptide, tri-methylated K25]	● [red]
KKKAT[Lys(Me3)]KAAGAGAAK [Peptide H1.5K25me3, 15-mer linker histone H1.5 residues 20-34 peptide, tri-methylated K25]	● [red]
KKKAK[Lys(Me3)]AGATAGKRK [Peptide H1.3K25me3, 15-mer linker histone H1.3 residues 20-34 peptide, tri-methylated K25]	● [red]
